# protocol.description: Stability in human blood plasma assessed as half-life
# Type: ADME, cell-free
measured.quantity: half-life

{"molecule": "COc1cc(C(C)O/C(=N\\OC[C@H](O)CO)c2ccc(F)c(F)c2Nc2ccc(I)cc2F)c([N+](=O)[O-])cc1OC (some centres not stated)", "half-life": "> 4.82 h"}

Ask | # input molecule: O=C(NOC[C@H](O)CO)c1ccc(F)c(F)c1Nc1ccc(I)cc1F [MIRDAMETINIB] ; wanted: its half-life
Reply | > 4.82 h

* * *

# protocol.description: Photoactivation of the compound assessed as photocleavage by measuring decay half-life in the presence of 365 nm UV irradiation by HPLC based LC-MS analysis
measured.quantity: half-life (s)
Give bare numbers, in s.

{"sample.smiles": "COc1cc(COCCONC(=O)c2ccc(F)c(F)c2Nc2ccc(I)cc2F)c([N+](=O)[O-])cc1OC", "half-life (s)": 31.2}

List reported half-life for each of these molecules:
1. CCN(CC)c1ccc2c(CO/C(=N\OC[C@H](O)CO)c3ccc(F)c(F)c3Nc3ccc(I)cc3F)cc(=O)oc2c1
2. COc1cc(CO/C(=N\OC[C@H](O)CO)c2ccc(F)c(F)c2Nc2ccc(I)cc2F)c([N+](=O)[O-])cc1OC

Reply |
1. 12
2. 103

* * *

Assignment: determine reported GI50 for the given compounds.
# System: A549
# protocol.description: Antiproliferative activity against human A549 cells harboring KRAS […] mutant assessed as cell growth inhibition incubated for 72 hrs in the absence of UV irradiation by CellTiter-Glo luminescent assay
# Format: functional
# protocol.conditions: A549, light or radiation study

Recorded GI50, per entry:
{"compound": "O=C(NOC[C@H](O)CO)c1ccc(F)c(F)c1Nc1ccc(I)cc1F", "assay.result": "0.00494 µM"}
{"compound": "CCN(CC)c1ccc2c(CO/C(=N\\OC[C@H](O)CO)c3ccc(F)c(F)c3Nc3ccc(I)cc3F)cc(=O)oc2c1", "assay.result": "> 10 µM"}
{"compound": "COc1cc(CO/C(=N\\OC[C@H](O)CO)c2ccc(F)c(F)c2Nc2ccc(I)cc2F)c([N+](=O)[O-])cc1OC", "assay.result": "> 10 µM"}

List reported GI50 for each of these compounds:
1. O=[N+]([O-])c1cc2c(cc1CO/C(=N\OC[C@H](O)CO)c1ccc(F)c(F)c1Nc1ccc(I)cc1F)OCO2
2. COc1cc(C(C)O/C(=N\OC[C@H](O)CO)c2ccc(F)c(F)c2Nc2ccc(I)cc2F)c([N+](=O)[O-])cc1OC (stereo partly specified)
3. CC(O/C(=N\OC[C@H](O)CO)c1ccc(F)c(F)c1Nc1ccc(I)cc1F)c1cc2c(cc1[N+](=O)[O-])OCO2 (stereo partly specified)

Reply |
> 10 µM
> 10 µM
> 10 µM

* * *

# protocol.description: Metabolic stability in human liver microsomes assessed as parent compound remaining measured after 1 hrs in the absence of NADPH regenerating system
# Format: ADME, Microsome
# protocol.conditions: read-out: Stability
measured.quantity: remaining at 1 h (%)
Answers are plain numbers, in %.

Ask | # input compound: COc1cc(C(C)O/C(=N\OC[C@H](O)CO)c2ccc(F)c(F)c2Nc2ccc(I)cc2F)c([N+](=O)[O-])cc1OC (stereo partly specified) ; wanted: its remaining at 1 h
Reply | 84.5
